Test: Components of the Cytosolic LPS Sensing Pathway: Gene Identification via Genome-wide siRNA Screen
Settings: RAW264.7 macrophages, IL-1a HTRF, actives lie on both sides, screened at 100 nM (by protocol), cells primed 5 h with Pam3CSK4 first
About 3,700 (7%) of roughly 53,000 sequences were called active. Many of the other results were omitted from the sample, so actives are more common in it than they were.
Measured quantity: z-score

What value of z-score has been recorded for this entry: GGGCUCUUGUGUUAAGGCATT against Krt27 -0.119 (inactive)

So what's the measured z-score for this one? GGCUGGUGUAAAAGACACGTT against Nat14 0.142 (inactive)

I am curious: what z-score value has been reported for CCUUGCAUUACUUCUAAAUTT against Aff2 ? 0.29 (inactive)

I am curious: what z-score value has been reported for GGGCAGAGGCAUUUCUGUATT against Psg23 ? 1.76 (inactive)

# get_value(readout='z-score', item= GCUCCAGGCAUUGAGAAUGTT against Hcfc1r1 ) 1.98 (inactive)

Query (sequence): GCACUUUCCUUUAUUGUGUTT against Fam117a ; field requested: z-score -1.41 (inactive)

Please look up its z-score: GCUCUUGCUACUUUUUUCUTT against Olfr823 -0.108 (inactive)

Recorded z-score of CCUGAUCUAAUCCUAAAUGTT against Pgr , please. -0.171 (inactive)

// returns reported z-score for input GGCUUAGCUUUUGUGAUUCTT against Olfr143 -1.24 (inactive)

Entry GCCUCGAUCUGAUCUAGAGTT against Dbx2 : reported z-score = ? 0.291 (inactive)

Recorded z-score of GCUGAGUGAAUCCACGUACTT against Mzb1 , please. -2.65 (active)

For the sequence GCUCUAUUUGACCACCUCATT against Gdpd1 , what z-score is on record? -0.898 (inactive)

----------
Assay: Components of the Cytosolic LPS Sensing Pathway: Gene Identification via Genome-wide siRNA Screen
Details: RAW264.7 macrophages, IL-1a HTRF, actives lie on both sides, screened at 100 nM (by protocol), cells primed 5 h with Pam3CSK4 first
About 3,700 (7%) of roughly 53,000 sequences were called active. Only a selection was taken, and actives are over-represented in it overall.
Please assign false whenever z-score is at or above -0.4, and true whenever it is below.

is_below(z-score, -0.4) for GCUGACAAAACUGCUAAACTT against Ctnnb1 ? false

Here's an entry: GGGACAUGGUCAUCACUAGTT against Clvs2 . Is its z-score below -0.4? true

Determine if GGCCAAAGUCGAAUCAUAUTT against Prmt2 shows z-score strictly lower than -0.4. false

Check if z-score falls below -0.4 for GGGAUCUUUUACUCAUACUTT against Olfr862 . true

Input CCCUCCAGUAAAUUUUAAGTT against Sox6 ; condition: z-score strictly below -0.4. Does it hold? false

Please check: z-score for GGAGGAGGCAGAAACAACATT against Tex46 , strictly under -0.4 or not? false

In plain terms, does GGCUGGUCUCCAAACCCAATT against F13b come in under -0.4 for z-score? false

Does GCGGAACAUCUUAGCUUAATT against Perm1 have z-score strictly under -0.4? false

Is the reported z-score for GCCAAAUAUUAUUCCUACATT against Sec63 strictly below -0.4? false

# TODO verify z-score < -0.4 strictly for this sequence: GCGCAGAGAUUACCUUAAGTT against Gtf3a true

I wonder whether CCCACAUCAUUGAGAUUCUTT against Olfr1508 has z-score below -0.4. Can you tell? true

----------
Answer each item with its documented z-score.
Experiment: Components of the Cytosolic LPS Sensing Pathway: Gene Identification via Genome-wide siRNA Screen
Conditions: RAW264.7 macrophages, IL-1a HTRF, actives lie on both sides, screened at 100 nM (by protocol), cells primed 5 h with Pam3CSK4 first
Out of some 53,000 sequences screened, about 3,700 (7%) were called active. Many of the other results were omitted from the sample, so actives are more common in it than they were.
The answer should be written as a number, with no unit following it.

Could you tell me which z-score is on file for CCUGAAAGAUGCUCUCUAUTT against Inpp4b ? 4.27

# lookup: z-score of CCCACCUUACAUAUAUUGATT against Srr 0.25

I'd like to know its z-score. The sequence in question is GGUGGAAUACUUGGAGCAGTT against Gstm4 2.98

What value of z-score has been reported for the following sequence? GGAAACUAAUUUCAAGCCUTT against Hat1 1.19

I have this sequence here, GGAUGCUUUAACUUCAAACTT against Crebrf , and I need its recorded z-score. 2.56

Would you kindly share the measured z-score for GGCACCUUAAUGCUGACUUTT against Sdc4 ? -0.694

----------
Experiment: Components of the Cytosolic LPS Sensing Pathway: Gene Identification via Genome-wide siRNA Screen
Settings: RAW264.7 macrophages, IL-1a HTRF, actives lie on both sides, screened at 100 nM (by protocol), cells primed 5 h with Pam3CSK4 first
Screen size: about 53,000 sequences; about 3,700 (7%) were called active. The full list was thinned out, with actives kept by preference.
Rule: z-score below 0.2 gives Yes, anything at or above gives No.

Say whether its z-score is strictly beneath 0.2. Entry: GGUAGAUCAUGGCCAUCCUTT against Ntf5 No

For this sequence, is z-score lower than 0.2? GGACACUUACGUCAUCGAGTT against Rtca Yes

Please state whether z-score is below 0.2 for GGUGUUGAACAAAUUAACUTT against Pprc1 No

Item GCUCAAGGACUUACGCAACTT against Zfp668 : z-score beneath 0.2, strictly? Yes

Please let me know if GGAUGCCUAUCACAAGCAGTT against Pacsin1 shows z-score below 0.2. Yes

Lab log: compare recorded z-score with 0.2; is it strictly lower for GCUGGUUACUCCCAAGACGTT against Dlgap2 ? No

Consider the sequence GGUUUUUGAUGAUUGCUUUTT against Slc49a4 . Is its z-score strictly less than 0.2? No

Regarding GGAAUAAAGUGUUGUGUCATT against Wfdc15b , kindly confirm whether its z-score is beneath 0.2. Yes

Would you kindly verify if z-score of GGAUGGGUUUGAUCUUAAUTT against Il13ra2 is strictly less than 0.2? No

Dear reviewer, please state whether CAUCGUGUGAAACUGGAGATT against Carmil3 has z-score strictly beneath 0.2. No

Below 0.2 on z-score? Entry GGUACCCAGCGAUCAUGCATT against Olfr1370 Yes

Take the sequence GGCCAAAGAAGAAAGUGACTT against Opn3 and say whether its z-score is less than 0.2. Yes

# strict comparison: is reported z-score < 0.2? input = CCGCUUCUCUAGUGAAUAATT against Uros Yes

Lab note: z-score threshold 0.2. Does this sequence come in strictly under it? CGAAUGUCCUGGAAGCAAATT against Olfr142 Yes

Quick check: does CCACCUUGGUCUAAUUUCUTT against Slitrk4 have z-score under 0.2? Yes

# TODO verify z-score < 0.2 strictly for this sequence: CGAAAUUUAACUUGAACAGTT against Toporsl No

Problem: For the sequence GGCUCGGACCAAAAAAAUUTT against Msantd3 , is z-score under 0.2? Yes

Please state whether z-score is below 0.2 for GGUGAUCGUGGUGUGGAACTT against Extl2 No

Hello, I'm reviewing records and need to know if z-score of GCGAUGAUGAAAGCUCAGUTT against Atad1 is below 0.2. Could you check? Yes

Does this sequence meet the criterion z-score < 0.2? GGAAGAGCCAGUGGUAUAATT against Ccdc171 Yes

Lab log: compare recorded z-score with 0.2; is it strictly lower for GCAAGUGACGGUUUAUCUGTT against Las1l ? Yes

Consider GGAUCAGUACCCGUAUUUGTT against Plin2 . Does its z-score lie strictly below 0.2? Yes

hey, is z-score for GGAAAAGGAAUUCUCCAGATT against Atrip lower than 0.2 or not? No

Answer whether the sequence GGUUGAGUAGUUGAUUUUCTT against Hemgn has z-score strictly less than 0.2 No

Input GCUUGGUAAAAUGAAAGUCTT against Klhl12 ; condition: z-score strictly below 0.2. Does it hold? No

----------
Experiment: Components of the Cytosolic LPS Sensing Pathway: Gene Identification via Genome-wide siRNA Screen
Conditions: RAW264.7 macrophages, IL-1a HTRF, actives lie on both sides, screened at 100 nM (by protocol), cells primed 5 h with Pam3CSK4 first
Method: Non-canonical inflammasome activation by cytosolic LPS is a critical component of the host response to Gram-negative bacterial infection, however we lack a comprehensive understanding of the cellular processes that control this pathway. […] Lipofectamine RNAiMAX Transfection Reagent ([…]; Invitrogen) was added in […] serum-free, antibiotic-free media to plate wells using a Thermo Scientific Matrix WellMate and Microplate Stacker. […] The plates were read on an EnVision plate reader (PerkinElmer). […]
Among all 53,000 sequences or so, about 3,700 (7%) were called active.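 Rule for the calls: active = gene knockdowns whose robust z-score for IL-1 alpha signal is at least 2 or at most -2, so actives lie on both sides; inactive = the rest.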 Only a selection was taken, and actives are over-represented in it overall.
Pick one and only one: Y for active, N for inactive

Dear all, I need the recorded test outcome for GGUGUUUUCCAACAUCCUCTT against Ccrl2 , thank you. Y

Dear all, I need the recorded test outcome for GGAUAACCUAAUGUAGAUATT against Nphs2 , thank you. N

Field: outcome | Entry: GCGGGAAUGAAGAAACACGTT against Eea1 N

Please let me know the test result on file for GGUGGUCCUGGAUCUUUAUTT against Spon2 . N

Can you look up the reported call for GGGAGACCUGCUACUAUUGTT against Gtf3c2 for me? Y

Just curious, what result did GGAUAUUGAUUCAGUCAAGTT against Rac2 get here? N

How did this test come out for GGACCAAGGGUUCAUAGCATT against Wdr35 ? N

Please indicate how the test categorized GAUAACAAGCAUCUCAUGUTT against Krtap6-5 . N

Please share the test call associated with GGAGAACCCAUUAAAGAAATT against Amd1 . N

Answer briefly: the call reported for GGUGUAAAGUAAUCAAGGCTT against Dbx2 in this assay. N

Answer briefly: the call reported for GGAGGUAUACAGUAAGGAGTT against Fbxo32 in this assay. N

Which outcome was assigned to CCUCCAUUGAUACUCAAGUTT against Pycr1 in this test? N

I would be grateful if you could indicate the recorded call for GGCCCAGUGACUAUGGAAUTT against Mpnd . Y

Short answer needed: outcome of this test for GGUCAAACUUCAAUAGACATT against Zkscan6 ? Y

# fetch the recorded call for CGAACAUUCCUUCCAUAACTT against Kcnd3 here N

Write down the call the test reported for this sequence. Item: GGCCAUUGAGCUCAACCCUTT against Sgta N

// param item: GCUUCUAAAUUUGGUUCUGTT against 9830163H01Rik ; yields the recorded call N

// outcome(item) with item = CCUGCGUUGACCAAUCAGATT against C2cd2l N

For GCAUCCACCUCAACGAUAUTT against Dlg3 , what call appears in the results of this test? N

What did the test return for CCUUGAUUGAGCCUGACUUTT against Hook2 ? N

Could you kindly confirm the outcome this assay logged for GGGAAUUUUGAAAAGGCUGTT against Nphp3 ? Y

What is the recorded call for this sequence in the test? CCAGACACAUAGGACAAAATT against Slco3a1 N

Hello, I am checking results. What call was entered for GGAAAACAAACCACAGCCATT against Tpbpa ? Y

Fill in: this test's call for GCUUCAUAUAGACAAAGCCTT against Epo is ___ N

For this sequence, state the assay outcome: GGGUGAAUUUUGUUUUUGUTT against Kcnj14 Y

Which result was noted for this sequence in the test: CGUACCAUGGUCAAGACGUTT against Tpcn1 N

Given CCGUGUCAUUUGGAGAGCUTT against Ndufaf5 , state the outcome it received in this test. N

What was the test verdict on GCUAUUUUGGGACGAGUCATT against Col13a1 ? N

Field: outcome | Entry: GGACAAAGAAACUCAUAGGTT against A530021J07Rik N

What outcome does the record of this test show for GGAAGAACAGAGGCAGAAGTT against Trpv3 ? N

Could you check what this test reported for GGAACAAGAGAGGACAAGUTT against Papss2 ? N

Which outcome was assigned to GGAAGAACACAAGUGUUUUTT against Trem3 in this test? N

Given GGUAGCAUUAUUUGUCCUATT against Pcdh15 , state the outcome it received in this test. N

Please let me know the test result on file for CGAAGUGGUUUUAUGUACUTT against Cdkn2b . Y

Write down the call the test reported for this sequence. Item: GGACUUGAAGAACUGUUAUTT against Hspa13 N

Recorded call for CCCAAAUACUCCAAUUAUATT against Fzd3 ? N

What was the test verdict on GGAAGUAAAAACAUACCUUTT against Chac2 ? Y

GET /call?item= GCCAGUCAUCUUUGUAGUCTT against Olfr411 returns the recorded outcome of this test. N

Can you look up the reported call for GUAAGCAGCAACAGAGGCUTT against Cd70 for me? N

For this sequence, state the assay outcome: CCUUCCACAAAUACUCAGGTT against S100a4 N

Returns: the outcome recorded for CCAGUCAUCAUGCUACACGTT against Slc19a3 in this assay. N

Entry GGUAUCCAGAUGAAAGAUGTT against Nlrp10 : call = ? N

For this sequence, state the assay outcome: GGAGAGCAUGUGACCAAAATT against Safb2 N

Answer briefly: the call reported for GGUUCUCCAAACUCUGCCATT against Arhgap1 in this assay. Y

Fill in: this test's call for GGUAGACACACACAUUCAUTT against Ampd3 is ___ N

Assay outcome for GGGCCAUUGUCAAGGUGAUTT against Olfr632 : what was it? N

Called result for GGGACCUUGAUCAAAACCUTT against Gp5 N

Record request — test call for CCACUAUGUUCUCUGGAUATT against Llgl1 N

Name the outcome recorded for GGAUAUGUGUUCAUCCUGUTT against Lrrc18 in the assay. N

What outcome does the record of this test show for CCCAAACUGAAUUAAGCAGTT against Spata7 ? N
